# test-target: Neu5Ac(a2-3)Gal(b1-4)GlcNAc(b1-3)Gal(b1-4)GlcNAc
# assay-procedure: glycan array binding signal (z-score within array); higher = stronger binding
# protocol-conditions: glycan notation: IUPAC condensed, linker removed
Many of the other results were omitted from the sample, so the strongest signals are more common in it than they were.

{"binder": "Cohesin-hMARCO (Homo sapiens) (protein) LDDLDAVRIKVDTVNAKPGDTVRIPVRFSGIPSKGIANCDFVYSYDPNVLEIIEIEPGDIIVDPNPDKSFDTAVYPDRKIIVFLFAEDSGTGAYAITKDGVFATIVAKVKEGAPNGLSVIKFVEVGGFANNDLVEQKTQFFDGGANVGDTTEPATPTTPVTTPTTTDDLDAASVRIVGSSNRGRAEVYYSGTWGTICDDEWQNSDAIVFCRMLGYSKGRALYKVGAGTGQIWLDNVQCRGTESTLWSCTKNSWGHHDCSHEEDAGVECSVHHHHHH", "glycan array binding signal (z-score)": -0.514}
{"binder": "LecRKVI.2 (protein) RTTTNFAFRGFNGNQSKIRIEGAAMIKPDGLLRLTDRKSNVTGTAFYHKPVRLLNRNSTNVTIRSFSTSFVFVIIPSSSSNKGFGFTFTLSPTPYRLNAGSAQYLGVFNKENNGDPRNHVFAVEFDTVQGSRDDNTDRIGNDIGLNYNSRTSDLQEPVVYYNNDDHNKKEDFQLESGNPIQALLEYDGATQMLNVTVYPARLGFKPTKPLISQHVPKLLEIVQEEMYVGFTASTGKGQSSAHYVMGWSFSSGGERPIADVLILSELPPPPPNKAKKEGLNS", "glycan array binding signal (z-score)": -0.162}
